- experimental.target: IRAK4 (Homo sapiens (Human))
- Sequence (Q9NWZ3 whole entry, species assumed): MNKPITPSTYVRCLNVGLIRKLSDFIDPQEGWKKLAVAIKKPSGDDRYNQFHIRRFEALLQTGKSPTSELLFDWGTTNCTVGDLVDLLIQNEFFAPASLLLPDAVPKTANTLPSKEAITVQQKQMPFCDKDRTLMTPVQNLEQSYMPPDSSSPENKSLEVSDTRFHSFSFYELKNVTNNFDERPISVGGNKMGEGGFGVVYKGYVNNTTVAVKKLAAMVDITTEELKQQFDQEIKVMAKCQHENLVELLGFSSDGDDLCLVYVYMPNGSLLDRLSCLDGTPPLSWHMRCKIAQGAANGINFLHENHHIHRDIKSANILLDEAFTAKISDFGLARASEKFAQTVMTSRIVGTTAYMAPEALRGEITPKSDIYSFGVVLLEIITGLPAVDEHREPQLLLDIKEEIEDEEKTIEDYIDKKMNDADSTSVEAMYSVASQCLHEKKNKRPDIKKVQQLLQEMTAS
- protocol.details: IRAK4 Biochemical HTRF Kinase Assay
- assay.setup: Table 4; read-out: IRAK4 HTRF biochemical: IC50

# compound, experimental.target, IC50 (nM)
records = [
    ("CC(C)Nc1cc(-c2ccc3cc(C#N)cnn23)ncc1-c1nnc(N2CCN(C(=O)CCOCCNc3cccc4c3C(=O)N(C3CCC(=O)NC3=O)C4=O)CC2)s1 (centres unmarked)", "IRAK4 (Homo sapiens (Human))", 9.2),
    ("CNc1cc(-c2ccc3cc(C#N)cnn23)ncc1-c1nnc([C@H]2CC[C@H](NC(=O)CCOCCOCCOCCNc3cccc4c3C(=O)N(C3CCC(=O)NC3=O)C4=O)CC2)s1 (some centres unmarked)", "IRAK4 (Homo sapiens (Human))", 0.86),
    ("CC(C)Nc1cc(-c2ccc3cc(C#N)cnn23)ncc1-c1nnc(N2CCN(C(=O)CCOCCNc3ccc4c(c3)C(=O)N(C3CCC(=O)NC3=O)C4=O)CC2)s1 (centres unmarked)", "IRAK4 (Homo sapiens (Human))", 1),
    ("Cc1ncsc1-c1ccc(CNC(=O)[C@@H]2C[C@@H](O)CN2C(=O)[C@@H](NC(=O)C2(F)CC2)C(C)(C)C)c(OCCOCCC(=O)N2CCN(c3nnc(-c4cnc(-c5ccc6cc(C#N)cnn56)cc4NC(C)C)s3)CC2)c1", "IRAK4 (Homo sapiens (Human))", 7.3),
    ("CC(C)Nc1cc(-c2ccc3cc(C#N)cnn23)ncc1-c1nnc(N2CCN(CCC3CCN(c4ccc5c(c4)C(=O)N(C4CCC(=O)NC4=O)C5=O)CC3)CC2)s1 (centres unmarked)", "IRAK4 (Homo sapiens (Human))", 1.7),
]

###

- experimental.target: Ikaros (Homo sapiens (Human), UniProt Q13422+Q96SW2)
- Sequence (Q13422 whole entry): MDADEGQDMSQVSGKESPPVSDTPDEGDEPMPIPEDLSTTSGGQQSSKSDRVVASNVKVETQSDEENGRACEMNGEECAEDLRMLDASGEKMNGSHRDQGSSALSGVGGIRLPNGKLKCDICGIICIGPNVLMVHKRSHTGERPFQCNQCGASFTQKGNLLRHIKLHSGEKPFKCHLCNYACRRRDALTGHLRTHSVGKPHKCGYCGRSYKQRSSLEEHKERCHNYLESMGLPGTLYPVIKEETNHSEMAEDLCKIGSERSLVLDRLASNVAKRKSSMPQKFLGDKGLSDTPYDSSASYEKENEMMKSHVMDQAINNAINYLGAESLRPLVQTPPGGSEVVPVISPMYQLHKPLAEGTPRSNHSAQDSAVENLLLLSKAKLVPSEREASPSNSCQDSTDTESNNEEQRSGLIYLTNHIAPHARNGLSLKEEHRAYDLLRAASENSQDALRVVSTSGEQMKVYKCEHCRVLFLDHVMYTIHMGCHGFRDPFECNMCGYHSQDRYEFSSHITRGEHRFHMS
- Sequence (Q96SW2 whole entry): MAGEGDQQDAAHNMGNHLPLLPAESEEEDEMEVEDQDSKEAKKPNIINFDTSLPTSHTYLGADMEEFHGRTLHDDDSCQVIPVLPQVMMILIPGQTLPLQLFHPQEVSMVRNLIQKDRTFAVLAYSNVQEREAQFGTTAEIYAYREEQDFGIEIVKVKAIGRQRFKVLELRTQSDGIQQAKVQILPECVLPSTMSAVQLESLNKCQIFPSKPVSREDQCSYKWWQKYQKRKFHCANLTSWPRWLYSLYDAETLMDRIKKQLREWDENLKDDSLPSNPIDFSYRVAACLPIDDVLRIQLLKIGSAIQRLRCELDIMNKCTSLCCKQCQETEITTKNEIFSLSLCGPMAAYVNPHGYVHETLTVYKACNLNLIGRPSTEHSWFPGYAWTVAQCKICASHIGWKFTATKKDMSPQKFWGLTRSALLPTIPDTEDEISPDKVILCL
- Sequence (Q16531 whole entry partner): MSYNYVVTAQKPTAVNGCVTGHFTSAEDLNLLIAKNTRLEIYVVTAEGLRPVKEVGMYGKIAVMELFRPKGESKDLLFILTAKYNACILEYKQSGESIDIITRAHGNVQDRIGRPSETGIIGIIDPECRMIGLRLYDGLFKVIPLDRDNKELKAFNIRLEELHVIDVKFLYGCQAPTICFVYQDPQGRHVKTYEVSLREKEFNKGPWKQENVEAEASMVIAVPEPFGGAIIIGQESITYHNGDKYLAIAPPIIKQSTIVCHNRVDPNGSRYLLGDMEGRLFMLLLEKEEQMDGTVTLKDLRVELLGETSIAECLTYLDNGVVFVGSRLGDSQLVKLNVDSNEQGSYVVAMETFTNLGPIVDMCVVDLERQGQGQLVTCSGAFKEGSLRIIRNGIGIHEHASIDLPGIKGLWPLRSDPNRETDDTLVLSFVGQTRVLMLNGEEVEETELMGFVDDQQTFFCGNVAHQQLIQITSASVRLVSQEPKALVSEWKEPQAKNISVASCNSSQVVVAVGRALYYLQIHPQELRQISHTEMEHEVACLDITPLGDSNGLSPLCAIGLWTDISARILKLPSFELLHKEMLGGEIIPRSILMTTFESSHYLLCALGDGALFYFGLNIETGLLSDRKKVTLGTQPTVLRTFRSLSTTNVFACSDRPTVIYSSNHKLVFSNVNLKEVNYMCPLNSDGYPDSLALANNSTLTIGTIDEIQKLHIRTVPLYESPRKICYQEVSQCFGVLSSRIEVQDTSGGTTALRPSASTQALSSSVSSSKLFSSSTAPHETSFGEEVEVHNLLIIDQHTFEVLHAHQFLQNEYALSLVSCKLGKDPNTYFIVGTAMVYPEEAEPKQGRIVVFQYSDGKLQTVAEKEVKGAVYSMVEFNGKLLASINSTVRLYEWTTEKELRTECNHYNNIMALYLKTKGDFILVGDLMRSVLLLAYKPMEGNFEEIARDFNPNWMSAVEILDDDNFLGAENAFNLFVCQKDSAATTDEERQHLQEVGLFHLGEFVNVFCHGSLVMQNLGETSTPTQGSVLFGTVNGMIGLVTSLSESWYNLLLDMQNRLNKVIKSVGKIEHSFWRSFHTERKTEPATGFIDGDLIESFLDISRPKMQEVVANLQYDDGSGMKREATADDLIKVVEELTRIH
- protocol.details: Flow Cytometry-Based Assay for Ikaros Degradation
- Format: cell-based
- assay.setup: Jurkat cells (Clone E6-1), 24 hours
Recorded DC50 by entry

# molecule, DC50
measured = [
    ("Cc1ncsc1-c1ccc(CNC(=O)[C@@H]2C[C@@H](O)CN2C(=O)[C@@H](NC(=O)CCCC(=O)N2CCN(c3nnc(-c4cnc(-c5ccc6cc(C#N)cnn56)cc4NC(C)C)s3)CC2)C(C)(C)C)cc1 [Example 35]", "> 5 µM"),
    ("Cc1ncsc1-c1ccc(CNC(=O)[C@@H]2C[C@@H](O)CN2C(=O)[C@@H](NC(=O)C2(F)CC2)C(C)(C)C)c(OCCOCCC(=O)N2CCN(c3nnc(-c4cnc(-c5ccc6cc(C#N)cnn56)cc4NC(C)C)s3)CC2)c1 [Example 47]", "> 5 µM"),
    ("CC(C)Nc1cc(-c2ccc3cc(C#N)cnn23)ncc1-c1nnc(N2CCN(C(=O)C3CCN(Cc4ccc5c(c4)C(=O)N(C4CCC(=O)NC4=O)C5=O)CC3)CC2)s1 (stereo not drawn) [Example 13]", "> 5 µM"),
    ("CC(C)Nc1cc(-c2ccc3cc(C#N)cnn23)ncc1-c1nnc(N2CCN(C(=O)C3CCN(CC4CCN(c5ccc(-c6nn(C7CCC(=O)NC7=O)c(=O)n6C)cc5)CC4)CC3)CC2)s1 (stereo not drawn) [Example 24]", "> 5 µM"),
    ("CC[C@@H]1[C@H](F)C(=O)N[C@@H]1COc1ncc(C#CCN2CCC3(CC2)CCN(c2ncc(C(=O)N[C@H](C(=O)N4C[C@H](O)C[C@H]4C(=O)NCc4ccc(-c5scnc5C)cc4)C(C)(C)C)cn2)CC3)c2cc(C(N)=O)c(OC)cc12 [Comparative b1, reference compound]", "> 5 µM"),
    ("NC(=O)c1nn(-c2ccc(C(=O)NCCOCCOCCNc3cccc4c3C(=O)N(C3CCC(=O)NC3=O)C4=O)cc2)cc1NC(=O)c1coc(-c2ccnc(NCC(F)(F)F)c2)n1 (stereo not drawn) [Comparative Compound a2, reference compound]", "0.02 µM"),
]
